Origin of the recorded values: ChEMBL document CHEMBL1961873

Assay target: Cyclin-dependent kinase 6 (Homo sapiens) (UniProt Q00534);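 note: mean percent inhibition of the kinase bound to its cyclin partner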
Sequence (Q00534 whole entry): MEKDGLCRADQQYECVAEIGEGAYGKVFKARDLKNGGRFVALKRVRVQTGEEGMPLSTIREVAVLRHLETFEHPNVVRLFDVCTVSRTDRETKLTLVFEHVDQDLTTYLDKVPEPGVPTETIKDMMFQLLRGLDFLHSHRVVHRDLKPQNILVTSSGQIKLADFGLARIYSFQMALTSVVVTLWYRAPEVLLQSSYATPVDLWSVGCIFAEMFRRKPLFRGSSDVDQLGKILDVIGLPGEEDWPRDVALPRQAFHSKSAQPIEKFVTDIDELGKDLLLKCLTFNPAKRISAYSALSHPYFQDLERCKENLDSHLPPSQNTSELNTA
Measurement parameters: at 1 µM
Measured attribute: inhibition (%)
Numbers only, in %.

smiles_str=COC(=O)Nc1nc2cc(Oc3ccc(NC(=O)Nc4cccc(Br)c4)cc3)ccc2[nH]1 data_value=0.22
smiles_str=N#Cc1c(NC(=O)c2ccccc2F)sc2c1CCCC2 data_value=-2.09
smiles_str=CN(C)C(=O)O[C@H]1CN[C@H](C#Cc2cc3ncnc(Nc4ccc(OCc5cccc(F)c5)c(Cl)c4)c3s2)C1 data_value=4.47
smiles_str=CS(=O)(=O)Nc1cccc(-c2ccc3c(NC(=O)C4CC4)n[nH]c3c2)c1 data_value=6.33
smiles_str=C[C@@H](Oc1cc(-n2cnc3ccc(OC[C@@H](O)CO)cc32)sc1C(N)=O)c1ccccc1Cl data_value=-0.4
smiles_str=CN(C)c1cc2c(Nc3ccc4c(cnn4Cc4ccccc4)c3)ncnc2cn1 data_value=-0.22
smiles_str=COc1ccc(-c2nn3ncccc3c2-c2ccnc(Nc3cccc(C(F)(F)F)c3)n2)cc1 data_value=-0.66
smiles_str=[O-][S+]1CCN(Cc2ccc(-c3ccc4ncnc(Nc5ccc(OCc6ccccc6)c(Cl)c5)c4c3)o2)CC1 data_value=0.14
smiles_str=O=C(Nc1ccc(Oc2ccc3[nH]c(NC(=O)c4ccco4)nc3c2)cc1)Nc1cc(C(F)(F)F)ccc1F data_value=-3.48
smiles_str=Cc1ccc2c(c1)/C(=N/Nc1ccc(S(N)(=O)=O)cc1)C(=O)N2 data_value=36.9

Record inhibition per entry; entries follow.
1. O=C1Nc2ccccc2/C1=C/Nc1ccc2[nH]c(=O)[nH]c2c1
2. COc1ccc2ncnc(Nc3ccc(OCc4ccccc4)cc3)c2c1
3. COc1cccc(-n2nc(C)c3c(N/N=C(\C)c4ccncc4)ncnc32)c1
4. COC(=O)c1cncc(/C=C/c2c(C)cc(O)cc2C)c1

1: 59; 2: 1.08; 3: 0.77; 4: 4.14
